run-description: Antiproliferative activity against human SPC-A1 cells after 72 hrs by MTT assay
Assay type: functional, cell-based
run-parameters: SPCA1, 72 h
Please respond with reported pIC50 for every item in the list.
Scale note: pIC50 = -log10(concentration in M).

Inquiry: Quote pIC50 reported for COc1cc(/C=C/C(=O)/C=C/c2nc(C)c(C)nc2C)ccc1O please.
Reply text: 5.51

Inquiry: Quote pIC50 reported for COc1ccc(/C=C/C(=O)/C=C/c2nc(C)c(C)nc2C)cc1OC please.
Reply text: 5.27

Inquiry: Quote pIC50 reported for COc1ccc(/C=C/C(=O)/C=C/c2nc(C)c(C)nc2C)c(OC)c1 please.
Reply text: 5.20

Inquiry: Quote pIC50 reported for COc1cccc(/C=C/C(=O)/C=C/c2nc(C)c(C)nc2C)c1O please.
Reply text: 5.24

Inquiry: Quote pIC50 reported for COc1cc(/C=C/C(=O)/C=C/c2nc(C)c(C)nc2C)cc(OC)c1OC please.
Reply text: 5.27

----------
run-description: Acute toxicity in ICR mouse assessed as survival at 300 mg/kg, ip measured on day 14
Format: organism-based
run-parameters: in vivo
measurement-label: survival at 14 day (%)
Just the number please, in %, no unit attached.

Inquiry: Quote survival at 14 day reported for COc1cc(/C=C/C(=O)/C=C/c2nc(C)c(C)nc2C)ccc1O please.
Reply text: 50

----------
run-description: Acute toxicity in ICR mouse assessed as survival at 350 mg/kg, ip measured on day 14
Format: organism-based
run-parameters: in vivo
measurement-label: survival at 14 day
Report as: number unit

Inquiry: Quote survival at 14 day reported for COc1cc(/C=C/C(=O)/C=C/c2nc(C)c(C)nc2C)ccc1O please.
Reply text: 30%

----------
run-description: Acute toxicity in ip dosed ICR mouse assessed as mortality measured up to 2 weeks
Format: organism-based
run-parameters: in vivo
measurement-label: LD50 at 336 h (mg/kg)
Just the number please, in mg/kg, no unit attached.

Inquiry: Quote LD50 at 336 h reported for COc1cc(/C=C/C(=O)/C=C/c2nc(C)c(C)nc2C)ccc1O please.
Reply text: 285

----------
Please respond with reported IC50 for every item in the list.
experimental-system: Thioredoxin reductase (Homo sapiens, UniProt Q16881+Q9NNW7+Q86VQ6)
run-description: Inhibition of thioredoxin reductase (unknown origin) after 2 hrs by DTNB dye based microplate spectrophotometry
Type: protein assay
Just the number please, in µM, no unit attached.

Inquiry: Consider the compound COc1cc(/C=C/C(=O)/C=C/c2nc(C)c(C)nc2C)ccc1O tested on Thioredoxin reductase (Homo sapiens, UniProt Q16881+Q9NNW7+Q86VQ6); state its IC50.
Reply text: 2.95

Inquiry: Consider the compound COc1ccc(/C=C/C(=O)/C=C/c2nc(C)c(C)nc2C)cc1OC tested on Thioredoxin reductase (Homo sapiens, UniProt Q16881+Q9NNW7+Q86VQ6); state its IC50.
Reply text: 7.09

Inquiry: Consider the compound COc1cc(/C=C/C(=O)/C=C/c2nc(C)c(C)nc2C)cc(OC)c1OC tested on Thioredoxin reductase (Homo sapiens, UniProt Q16881+Q9NNW7+Q86VQ6); state its IC50.
Reply text: 3.06

Inquiry: Consider the compound COc1cc(/C=C/C(=O)CC(=O)/C=C/c2ccc(O)c(OC)c2)ccc1O tested on Thioredoxin reductase (Homo sapiens, UniProt Q16881+Q9NNW7+Q86VQ6); state its IC50.
Reply text: 41.42

Inquiry: Consider the compound COc1ccc(/C=C/C(=O)/C=C/c2nc(C)c(C)nc2C)c(OC)c1 tested on Thioredoxin reductase (Homo sapiens, UniProt Q16881+Q9NNW7+Q86VQ6); state its IC50.
Reply text: 7.63

Inquiry: Consider the compound COc1cccc(/C=C/C(=O)/C=C/c2nc(C)c(C)nc2C)c1O tested on Thioredoxin reductase (Homo sapiens, UniProt Q16881+Q9NNW7+Q86VQ6); state its IC50.
Reply text: 5.3

----------
run-description: Acute toxicity in ICR mouse assessed as survival at 250 mg/kg, ip measured on day 14
Assay type: organism-based
run-parameters: in vivo
measurement-label: survival at 14 day (%)
Just the number please, in %, no unit attached.

Inquiry: Quote survival at 14 day reported for COc1cc(/C=C/C(=O)/C=C/c2nc(C)c(C)nc2C)ccc1O please.
Reply text: 60

----------
experimental-system: Thioredoxin reductase (Homo sapiens, UniProt Q16881+Q9NNW7+Q86VQ6)
run-description: Inhibition of thioredoxin reductase in human A549 cells by DTNB dye based microplate spectrophotometry
Type: cell-based
measurement-label: IC50 (µM)
Just the number please, in µM, no unit attached.

Inquiry: Quote IC50 reported for COc1ccc(/C=C/C(=O)/C=C/c2nc(C)c(C)nc2C)c(OC)c1 please.
Reply text: 4.12

Inquiry: Quote IC50 reported for COc1cc(/C=C/C(=O)/C=C/c2nc(C)c(C)nc2C)ccc1O please.
Reply text: 1.49

Inquiry: Quote IC50 reported for COc1cc(/C=C/C(=O)/C=C/c2nc(C)c(C)nc2C)cc(OC)c1OC please.
Reply text: 2.36

Inquiry: Quote IC50 reported for COc1cc(/C=C/C(=O)CC(=O)/C=C/c2ccc(O)c(OC)c2)ccc1O please.
Reply text: 40.56

Inquiry: Quote IC50 reported for COc1ccc(/C=C/C(=O)/C=C/c2nc(C)c(C)nc2C)cc1OC please.
Reply text: 4.17

Inquiry: Quote IC50 reported for COc1cccc(/C=C/C(=O)/C=C/c2nc(C)c(C)nc2C)c1O please.
Reply text: 4.73

----------
run-description: Acute toxicity in ICR mouse assessed as survival at 400 mg/kg, ip measured on day 14
Format: organism-based
run-parameters: in vivo
measurement-label: survival at 14 day (%)
Just the number please, in %, no unit attached.

Inquiry: Quote survival at 14 day reported for COc1cc(/C=C/C(=O)/C=C/c2nc(C)c(C)nc2C)ccc1O please.
Reply text: 10
